Source listed as the supplement of paper PMC9170038.

- Tested on: MS2 coat protein
- measurement notes: apparent KD of MS2 coat protein; designed switch direction (-1 OFF switch, 1 ON switch): 1; higher = weaker reporter binding
- measurement conditions: input ligand: microRNA oligo, concentration not stated
Everything with apparent KD of MS2 coat protein lower than 40 nM is Not satisfied; everything else, including exactly 40 nM, is Satisfied.

- sequence data: "AAGUGGUCCCAAGGAUAUGUCCAAAAGAAGGGCUGAGACAUGAGGAUCACCCAUGUCUCGGCGGUACAGAAGGUGGAGACAGGU [Solaena] (Eterna round: R96, puzzle: Same State NG 2)"
  group: "Not satisfied"
- sequence data: "GCUGCAAUAAACGCCUACAUGAGGAUCACCCAUGUAUGUAGGCAGGAUAUCGUUUGCAAAGCAAACGAGAAGGGCUGUAGUAGC [Mat - Same State NG 3 - JL Mod - D38] (Eterna round: R96, puzzle: Same State NG 3)"
  group: "Satisfied"
- sequence data: "GACGUGAAGGCAGGAUAUGGGAAAGGAAGUGUACCAGAAGGGCCUGGAAAACAUGAGGAUCACCCAUGUGAACCCACGUCAGUU [PowerStrip SSNG 1.26] (Eterna round: R96, puzzle: Same State NG 1)"
  group: "Not satisfied"
- sequence data: "UUCCCAGCGGGAGGAUAUGGUGCCUUGUUGGUGCUAGAAGGUCCAACAUGAGGAUCACCCAUGUGGGAGUGGUCUAAUGACCUC [SS NG10LRO08] (Eterna round: R96, puzzle: Same State NG 1)"
  group: "Satisfied"
- sequence data: "CAGCUCGUGUGAGGAUAUGCCGCCGUUUCGGCUGCAGAAGGUGCUACGUUACAUGAGGAUCACCCAUGUCUCUGUUGUUUCGUG [salish99_SSNG1_r04_963] (Eterna round: R96, puzzle: Same State NG 1)"
  group: "Not satisfied"
- sequence data: "UUUUUGAUCCGAGGAUAUCCUUUUUUCUUACAUGAGGAUCACCCAUGUAAAGGGAUUGAGUUGUAGGAGAAGGCGGUUUUUUUU [JR_SSNG2_Sub060] (Eterna round: R96, puzzle: Same State NG 2)"
  group: "Not satisfied"
- sequence data: "GUUCGUUUGAUAGGAUAUCGCUUAACAUGAGGAUCACCCAUGUUUACCACGCUGGUUUUUCGUACCGAGAAGGAUUCUGAUGAU [JL JR sub007 mod 1] (Eterna round: R96, puzzle: Same State NG 2)"
  group: "Satisfied"
- sequence data: "GGAUGAUAGAUAGGAUAUUGAUUGUAAUUAUGUCAAGAAGGAUCUUUGAUUUAAACGACCAGUUACAUGAGGAUCACCCAUGUU [JR_SSNG1_Sub087] (Eterna round: R96, puzzle: Same State NG 1)"
  group: "Not satisfied"
- sequence data: "AGCUAGUACCGAGGAUAUACAUACAUGAGGAUCACCCAUGUAUACAUGAAUAUAUGAGACUACAUGUAGAAGGCGGUACUAGCA [Mat - Same State NG 2 - JL mod - D46] (Eterna round: R96, puzzle: Same State NG 2)"
  group: "Satisfied"

* * *

- Test system: MS2 coat protein
- measurement notes: apparent KD of MS2 coat protein; designed switch direction (-1 OFF switch, 1 ON switch): -1; higher = weaker reporter binding
- measurement conditions: Eterna round: R95; input ligand: microRNA oligo, concentration not stated

- sequence data: "AAAUACAAGCAAAGAUCCUACAUGAGGAUCACCCAUGUGCUCGUCUUGUAAAGUACUAUCACGAAAGUGAUAGUACA [Sensor 3, v1 - 16] (puzzle: Sensor v3, turn-off variant 1)"
  target or test system: "MS2 coat protein"
  apparent KD of MS2 coat protein (nM): 27.5
- sequence data: "UAAUACAUCUAUGGGAGUAACAUGAGGAUCACCCAUGUAUGUCUUGUUUUUUGUUCGUCAAAGACUUUCUGAUCAGU [JR_SV3TOV1_Sub030] (puzzle: Sensor v3, turn-off variant 1)"
  target or test system: "MS2 coat protein"
  apparent KD of MS2 coat protein (nM): 191
- sequence data: "CAUGAUCUUCGGAUCAUGUACAUGAGGAUCACCCAUGUUACGAGUUGAUCCUCAUACAAGCUUUUUGCUCGUCUUAU [Sensor v3 - Turn-off variant 1 - 26] (puzzle: Sensor v3, turn-off variant 1)"
  target or test system: "MS2 coat protein"
  apparent KD of MS2 coat protein (nM): 14.8
- sequence data: "CUCUUGUAAGGAUAUCUGACAAGUGACGAAAGUCACAGUUCAGAGAAGGUACAUGAGGAUCACCCAUGUAGAAC [Exclusion 4 - Mod Brourd Ex 4-3: 41] (puzzle: Exclusion 4)"
  target or test system: "MS2 coat protein"
  apparent KD of MS2 coat protein (nM): 60.6
- sequence data: "UGAGAACAUGAGGAUCACCCAUGUAAGGAUAUGCGAAGAGUUUGGAGAGGUUGAGGAGGCAGAAGGUACGGGAG [JR_Exclu1_Sub045] (puzzle: Exclusion 1)"
  target or test system: "MS2 coat protein"
  apparent KD of MS2 coat protein (nM): 49.9
- sequence data: "AGUACUUACUCGAUAGUGUUAGUACAAUAAGCUUGUGAAACAUGAGGAUCACCCAUGUCCUCAUAAGCUCGUCUUAU [salish99_TOv2_r3_1005] (puzzle: Sensor v3, turn-off variant 2)"
  target or test system: "MS2 coat protein"
  apparent KD of MS2 coat protein (nM): 627
- sequence data: "AAACCCUGAGGAUAUACAUAACAACAAAUCCUCACGUGCCAACAUGAGGAUCACCCAUGUAGAAGGCAGGCCCA [Bigegedi] (puzzle: Exclusion 2)"
  target or test system: "MS2 coat protein"
  apparent KD of MS2 coat protein (nM): 15.8
- sequence data: "GAAUAGGCAGGAUAUACAUGAGGAUCACCCAUGUGCAAGCGAAAGGUACGUGAACAACGUAGAAGGGCCUAAAC [ChP 13.04.2015 #10] (puzzle: Exclusion 3)"
  target or test system: "MS2 coat protein"
  apparent KD of MS2 coat protein (nM): 12.9
- sequence data: "AUGGUACAUGAGGAUCACCCAUGUUAGGAUAUCGCGUGUUCUAAAACUAAGAGAUACACGAGAAGGGACGACAU (puzzle: Exclusion 1)"
  target or test system: "MS2 coat protein"
  apparent KD of MS2 coat protein (nM): 81.2
- sequence data: "CUUCACCCACCUGAGCUCACCCACAUACCUGCUCAGGUGACAUGAGGAUCACCCAUGUUUUUUGCCCGUCUUAUCUU [Soteonge] (puzzle: Sensor v3, turn-off variant 2)"
  target or test system: "MS2 coat protein"
  apparent KD of MS2 coat protein (nM): 229
